STUDY TARGET: LSD1 (Homo sapiens, UniProt O60341)
pIC50: −log10 of the molar value.
The following compounds are shown together with reported pIC50 values.
ASSAY ENDPOINT: pIC50

# COMPOUND, ASSAY ENDPOINT, ASSAY VALUE
data = [
    ("N#Cc1ccc(-c2cc(NC[C@H]3CCC[C@H](N)C3)nn2-c2ccc(N3CCCC3)cc2)cc1F", "pIC50", "> 6.30"),
    ("Cn1nnc2ccc(-n3nc(NC[C@H]4CCC[C@H](N)C4)cc3-c3ccc(C#N)c(F)c3)cc21", "pIC50", "5.00 to 6.00"),
    ("CC(C)OC1CCN(c2ccc(-n3nc(NC[C@H]4CCC[C@H](N)C4)cc3-c3ccc(C#N)c(F)c3)cc2)CC1 [Example 94, 2,2,2-trifluoroacetate]", "pIC50", "> 6.30"),
    ("N#Cc1ccc(-c2cc(NC[C@H]3CCC[C@H](N)C3)nn2-c2ccc3c(cnn3-c3ccccc3)c2)cc1F", "pIC50", "> 6.30"),
    ("COc1ccc(-n2nc(NCC3CC[C@@H](N)C3)cc2-c2ccc(C#N)c(F)c2)cc1 (mixture of isomers)", "pIC50", "> 6.30"),
    ("COC1CCN(c2ccc(-n3nc(NC[C@H]4CCC[C@H](N)C4)cc3-c3ccc(C#N)c(F)c3)cc2)CC1", "pIC50", "> 6.30"),
]

These measurements were taken from patent US20250032454A1.
